- Tested on: Escherichia coli
- PROTOCOL_SUMMARY: in vitro antibacterial (ABMF) microdilution susceptibility test
- Assay type: cell-based
- EXPERIMENTAL_CONDITIONS: read-out: ABMF Test M.I.C. E. coli
ASSAY_ENDPOINT: MIC

>>> result("CCN(CC)CCn1nc2c([N+](=O)[O-])cc([N+](=O)[O-])c3c2c1-c1cc(OC)ccc1N3.CS(=O)(=O)O")
"1000 µg/mL"
>>> result("CCN(CC)CCn1nc2c3c(c([N+](=O)[O-])cc([N+](=O)[O-])c31)Nc1ccc(OC)cc1-2 [Example 50, hydrate]")
"< 0.46 µg/mL"

Switching to the query record.
Result for `COc1ccc2c(c1)-c1nn(CCCN(C)C)c3c([N+](=O)[O-])cc([N+](=O)[O-])c(c13)N2.CS(=O)(=O)O` , tested on Escherichia coli, MIC: < 0.46 µg/mL

---

This section presents compounds with their documented MIC values.
- Test system: Escherichia coli
- PROTOCOL_SUMMARY: in vitro antibacterial (ABMF) microdilution susceptibility test
- Assay type: cell-based
- EXPERIMENTAL_CONDITIONS: Mueller-Hinton broth, 37° C., 16-24 hours, read-out: ABMF Test M.I.C. E. coli

>>> result("CCN(CC)CCn1nc2c3c(c([N+](=O)[O-])ccc31)Nc1ccc(OC(C)=O)cc1-2 [Example 27]")
"12.3 µg/mL"
>>> result("CCCOc1ccc2c(c1)-c1nn(CCN(CC)CC)c3ccc([N+](=O)[O-])c(c13)N2.CS(=O)(=O)O [Example 19]")
"1000 µg/mL"
>>> result("COc1cc(OC)c2c(c1)-c1nn(CCN(C)C)c3ccc([N+](=O)[O-])c(c13)N2.CS(=O)(=O)O [Example 38]")
"1000 µg/mL"
>>> result("Cc1ccc2c(c1)-c1nn(CCNCCO)c3ccc([N+](=O)[O-])c(c13)N2.Cl [Example 42]")
"< 0.46 µg/mL"
>>> result("CCN(CC)CCOc1ccc2c(c1)-c1nn(CCN(CC)CC)c3ccc([N+](=O)[O-])c(c13)N2 [Example 21]")
"111 µg/mL"

Consider now this further compound.
Reported MIC of CCN(CC)CCn1nc2c3c(c([N+](=O)[O-])ccc31)Nc1ccc(C)cc1-2 [Example 34] : 12.3 µg/mL

---

Measured zone of inhibition at 500 µg/mL accompanies every entry in the list below.
- System: Streptococcus faecalis
- PROTOCOL_SUMMARY: in vitro antibacterial/antifungal (ABF) agar-disk diffusion assay
- Assay type: cell-based
- EXPERIMENTAL_CONDITIONS: Enterococcus faecalis; dose .5 mg/ml; read-out: ABF zone diameter S. faecalis
Structures can show the parent of a compound that is named as a salt.
Respond with the bare value in mm.

>>> quantitative_readout("CCN(CC)CCn1nc2c3c(c([N+](=O)[O-])ccc31)Nc1ccccc1-2")
17
>>> quantitative_readout("O=[N+]([O-])c1ccc2c3c(nn2CCNCCO)-c2ccccc2Nc13 [Example 3, monohydrochloride]")
15
>>> quantitative_readout("CCN(CC)CCn1nc2ccc([N+](=O)[O-])c3c2c1-c1ccccc1N3")
18
>>> quantitative_readout("CCN(CC)CCn1nc2c3c(c([N+](=O)[O-])ccc31)Nc1ccc(O)cc1-2")
16
>>> quantitative_readout("CCN(CC)CCn1nc2ccc([N+](=O)[O-])c3c2c1-c1cc(OC)ccc1N3.CS(=O)(=O)O [Example 9, monomethanesulfonate]")
18

Entry CCN(CC)CCn1nc2c3c(c([N+](=O)[O-])ccc31)N(C)c1ccccc1-2 [Example 2, methanesulfonate] — recorded zone of inhibition at 500 µg/mL = 16

So for `CN1c2ccccc2-c2nn(CCNCCO)c3ccc([N+](=O)[O-])c1c23` , the logged zone of inhibition at 500 µg/mL turned out to be 18

// field: zone of inhibition at 500 µg/mL; key: `COc1ccc2c(c1)-c1nn(CCN(C)C)c3ccc([N+](=O)[O-])c(c13)N2` ; value = 15

---

- System: Alcaligenes viscolactis
- PROTOCOL_SUMMARY: in vitro antibacterial (ABMF) microdilution susceptibility test
- Type: cell-based
- EXPERIMENTAL_CONDITIONS: Mueller-Hinton broth, 37° C., 16-24 hours, read-out: ABMF Test M.I.C. A. visc.
ASSAY_ENDPOINT: MIC (µg/mL)
Numbers only here, please. The scale is µg/mL.

>>> quantitative_readout("CN(C)CCCn1nc2c3c(c([N+](=O)[O-])ccc31)Nc1ccc(OC(=O)C(C)(C)C)cc1-2")
0.46

Alcaligenes viscolactis data for `CC[N+]([O-])(CC)CCn1nc2c3c(c([N+](=O)[O-])ccc31)Nc1ccccc1-2` ; its MIC: 4.1

---

- Test system: lymphocytic leukemia P388
- PROTOCOL_SUMMARY: in vivo lymphocytic leukemia P388 test
- Set-up: species or system CD2 F1 mice
- EXPERIMENTAL_CONDITIONS: Mus musculus, P388, ip, 120 h, read-out: P388 in vivo T/C × 100, 6.25 mg/kg, intraperitoneally once daily for five days
ASSAY_ENDPOINT: response vs control in vivo at 6.25 mg/kg (%)
Just the number in %, nothing appended.

Below are worked cases with known answers.
>>> quantitative_readout("CCN(CC)CCn1nc2c3c(c([N+](=O)[O-])ccc31)Nc1ccc(O[Si](C)(C)C(C)(C)C)cc1-2")
211
>>> quantitative_readout("COc1ccc2c(c1)-c1nn(CCN(C)C)c3c([N+](=O)[O-])cc([N+](=O)[O-])c(c13)N2 [Example 54, hydrate]")
169
>>> quantitative_readout("CCN(CC)CCn1nc2c3c(c([N+](=O)[O-])cc([N+](=O)[O-])c31)Nc1ccc(OC)cc1-2 [Example 50, hydrate]")
160

Now let's try a different one.
Notebook: `COc1ccc2c(c1)-c1nn(CCCN(C)C)c3ccc([N+](=O)[O-])c(c13)N2` , response vs control in vivo at 6.25 mg/kg read as 189

---

- Tested on: Bacillus cereus
- PROTOCOL_SUMMARY: in vitro antibacterial (ABMF) microdilution susceptibility test
- Type: cell-based
- EXPERIMENTAL_CONDITIONS: Mueller-Hinton broth, 37° C., 16-24 hours, read-out: ABMF Test M.I.C. B. cere.
- From the text: (d) Still another test protocol is the in vitro antibacterial (ABMF) test which is a recognized standard microdilution susceptibility procedure in Mueller-Hinton broth against gram-positive and gram-negative bacterial test organisms. The procedure is a modification of a state-of-the-art procedure reported in Manual of Clinical Microbiology, Lennette, E. H., ed., by Barry, A. L. and C. […]
ASSAY_ENDPOINT: MIC (µg/mL)
Write it as a number; the unit µg/mL goes unstated.

Below are worked cases with known answers.
>>> quantitative_readout("CCN(CC)CCCn1nc2c3c(c([N+](=O)[O-])ccc31)Nc1ccc(OC)cc1-2")
4.1
>>> quantitative_readout("CCCCCCCC(=O)Oc1ccc2c(c1)-c1nn(CCN(CC)CC)c3ccc([N+](=O)[O-])c(c13)N2 [Example 30, hemihydrate]")
37

Moving on to another molecule below.
MIC recorded for this molecule, CCNCCn1nc2c3c(c([N+](=O)[O-])ccc31)Nc1ccc(OC)cc1-2 [Example 36, hemihydrate] , is 1.4

---

- Test system: Escherichia coli
- PROTOCOL_SUMMARY: in vitro antibacterial (ABMF) microdilution susceptibility test
- Type: cell-based
- EXPERIMENTAL_CONDITIONS: read-out: ABMF Test M.I.C. E. coli
ASSAY_ENDPOINT: MIC

Example cases with answers are listed next.
>>> result("COc1ccc2c(c1)-c1nn(CCCN(C)C)c3ccc([N+](=O)[O-])c(c13)N2")
"12.3 µg/mL"
>>> result("CCN(CC)CCn1nc2c3c(c([N+](=O)[O-])cc([N+](=O)[O-])c31)Nc1ccc(O)cc1-2 [Example 49, methanesulfonate, hemihydrate]")
"< 0.46 µg/mL"
>>> result("CCN(CC)CCn1nc2c3c(c([N+](=O)[O-])cc([N+](=O)[O-])c31)Nc1ccc(OCc3ccc(OC)cc3)cc1-2.CS(=O)(=O)O")
"< 0.46 µg/mL"
>>> result("COc1ccc2c(c1)-c1nn(CCN(C)C)c3c([N+](=O)[O-])cc([N+](=O)[O-])c(c13)N2 [Example 54, hydrate]")
"0.46 µg/mL"
>>> result("CCOc1ccc2c(c1)-c1nn(CCN(CC)CC)c3c([N+](=O)[O-])cc([N+](=O)[O-])c(c13)N2.CS(=O)(=O)O.O")
"> 1000 µg/mL"

Observed MIC, Escherichia coli, `CCN(CC)CCn1nc2c3c(c([N+](=O)[O-])ccc31)Nc1ccc(O[Si](C)(C)C(C)(C)C)cc1-2` : > 1000 µg/mL
